- ASSAYED_SYSTEM: PI3Kα (Homo sapiens (Human))
- Sequence (P42336 whole entry): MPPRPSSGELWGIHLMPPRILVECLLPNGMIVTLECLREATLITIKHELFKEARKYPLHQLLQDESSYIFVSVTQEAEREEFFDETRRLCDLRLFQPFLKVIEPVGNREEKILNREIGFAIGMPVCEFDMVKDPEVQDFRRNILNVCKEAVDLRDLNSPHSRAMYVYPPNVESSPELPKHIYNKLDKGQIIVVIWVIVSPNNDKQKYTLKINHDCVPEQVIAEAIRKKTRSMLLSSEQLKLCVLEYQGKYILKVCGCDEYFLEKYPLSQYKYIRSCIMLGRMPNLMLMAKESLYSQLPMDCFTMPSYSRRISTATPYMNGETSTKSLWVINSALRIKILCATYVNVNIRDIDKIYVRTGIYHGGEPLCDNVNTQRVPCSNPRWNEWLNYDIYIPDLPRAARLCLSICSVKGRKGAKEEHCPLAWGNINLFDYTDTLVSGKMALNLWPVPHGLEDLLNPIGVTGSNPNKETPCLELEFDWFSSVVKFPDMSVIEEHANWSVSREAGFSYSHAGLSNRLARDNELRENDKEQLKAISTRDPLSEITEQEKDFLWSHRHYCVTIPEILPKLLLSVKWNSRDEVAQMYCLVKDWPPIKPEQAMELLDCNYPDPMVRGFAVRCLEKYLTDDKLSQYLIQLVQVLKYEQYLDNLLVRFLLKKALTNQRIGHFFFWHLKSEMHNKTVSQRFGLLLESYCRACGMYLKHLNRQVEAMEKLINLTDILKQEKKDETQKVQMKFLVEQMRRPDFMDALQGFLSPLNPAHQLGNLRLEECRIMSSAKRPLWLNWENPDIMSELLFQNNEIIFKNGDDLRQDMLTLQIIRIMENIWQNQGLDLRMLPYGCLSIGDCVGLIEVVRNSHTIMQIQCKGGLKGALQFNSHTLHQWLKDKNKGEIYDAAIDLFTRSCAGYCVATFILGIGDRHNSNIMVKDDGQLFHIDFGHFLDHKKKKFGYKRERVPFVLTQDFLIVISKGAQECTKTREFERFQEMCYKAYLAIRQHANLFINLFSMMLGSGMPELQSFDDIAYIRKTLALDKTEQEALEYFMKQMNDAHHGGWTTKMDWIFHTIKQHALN
- Sequence (P27986 whole entry partner): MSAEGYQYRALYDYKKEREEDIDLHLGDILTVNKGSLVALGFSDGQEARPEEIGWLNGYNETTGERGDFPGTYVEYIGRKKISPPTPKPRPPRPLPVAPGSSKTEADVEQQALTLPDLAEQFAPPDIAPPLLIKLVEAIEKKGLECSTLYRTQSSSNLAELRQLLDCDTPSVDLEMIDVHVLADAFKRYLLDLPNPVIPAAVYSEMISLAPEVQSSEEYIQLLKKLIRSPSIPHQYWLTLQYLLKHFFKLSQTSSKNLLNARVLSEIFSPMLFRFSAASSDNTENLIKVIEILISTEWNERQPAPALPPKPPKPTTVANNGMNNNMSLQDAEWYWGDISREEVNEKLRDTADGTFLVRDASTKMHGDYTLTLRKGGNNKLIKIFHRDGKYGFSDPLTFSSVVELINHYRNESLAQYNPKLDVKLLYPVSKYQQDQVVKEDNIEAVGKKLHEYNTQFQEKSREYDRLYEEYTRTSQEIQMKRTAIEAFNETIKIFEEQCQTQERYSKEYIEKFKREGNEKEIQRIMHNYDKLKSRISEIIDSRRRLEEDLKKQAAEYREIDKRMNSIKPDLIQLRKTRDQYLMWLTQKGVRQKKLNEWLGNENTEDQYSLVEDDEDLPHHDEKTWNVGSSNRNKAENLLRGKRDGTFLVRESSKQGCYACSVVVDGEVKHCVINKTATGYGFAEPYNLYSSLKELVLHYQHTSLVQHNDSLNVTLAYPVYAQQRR
- EXPERIMENT_DESCRIPTION: Inhibition of PI3Kα efficacy assay (ADP-Glo kinase assay)
- Assay type: biochemical
- APPLIED_CONDITIONS: Table 2; read-out: PI3Kα inhibitory activity (IC50)
# label = Satisfied if IC50 < 3 nM else Not satisfied

INSERT INTO measurements (compound, assayed_system, class_name) VALUES
  ('C=CC(=O)N1CCN(c2ncnc3ccc(-c4cnc(OC)c(NCc5ccc(F)cc5F)c4)cc23)CC1', 'PI3Kα (Homo sapiens (Human))', 'Not satisfied'),
  ('CC(=O)/C=C/C(=O)N1CCN(c2ncnc3ccc(-c4cnc(Cl)c(NS(=O)(=O)c5c(F)cccc5F)c4)cc23)[C@@H](C)C1', 'PI3Kα (Homo sapiens (Human))', 'Satisfied'),
  ('COc1ncc(-c2ccc3ncnc(N4CCN(C(=O)/C=C/C(C)=O)CC4)c3c2)cc1NS(=O)(=O)c1ccncc1F', 'PI3Kα (Homo sapiens (Human))', 'Satisfied'),
  ('COc1ncc(-c2ccc3ncnc(N4CCN(C(=O)/C=C/C(C)=O)CC4)c3c2)cc1NS(=O)(=O)c1c(F)cccc1C#N', 'PI3Kα (Homo sapiens (Human))', 'Not satisfied'),
  ('COc1ncc(-c2ccc3ncnc(N4CCN(C(=O)/C=C/C(C)=O)CC4)c3c2)cc1NS(=O)(=O)c1ccccc1C', 'PI3Kα (Homo sapiens (Human))', 'Not satisfied'),
  ('C=C(F)C(=O)N1CCN(c2ncnc3ccc(-c4cnc(OC)c(NS(=O)(=O)c5c(F)cccc5F)c4)cc23)C[C@@H]1CC#N', 'PI3Kα (Homo sapiens (Human))', 'Satisfied'),
  ('COc1ncc(-c2ccc3ncnc(N4CCC5(CN(C(=O)/C=C/C(C)=O)C5)C4)c3c2)cc1NS(=O)(=O)c1c(F)cc(F)cc1F', 'PI3Kα (Homo sapiens (Human))', 'Satisfied'),
  ('CC(=O)/C=C/C(=O)N1CCN(c2ncnc3ccc(-c4cnc(Cl)c(NS(=O)(=O)c5c(F)cc(F)cc5F)c4)cc23)CC1', 'PI3Kα (Homo sapiens (Human))', 'Satisfied'),
  ('COc1ncc(-c2ccc3ncnc(N4CCN(C(=O)/C=C/C(C)=O)CC4)c3c2)cc1NS(=O)(=O)c1ccc(C#N)cc1F', 'PI3Kα (Homo sapiens (Human))', 'Not satisfied'),
  ('COc1ncc(-c2ccc3ncnc(N4CCC5(CC4)CN(C(=O)/C=C/C(C)=O)C5)c3c2)cc1NS(=O)(=O)c1c(F)cccc1F', 'PI3Kα (Homo sapiens (Human))', 'Satisfied'),
  ('C=CC(=O)N1CCN(c2ncnc3ccc(-c4cnc(OC)c(NS(=O)(=O)c5c(F)cccc5F)c4)cc23)C[C@@H]1CC#N', 'PI3Kα (Homo sapiens (Human))', 'Satisfied'),
  ('CCc1ncc(-c2ccc3ncnc(N4CCN(C(=O)/C=C/C(C)=O)CC4)c3c2)cc1NS(=O)(=O)c1ccc(F)cc1F', 'PI3Kα (Homo sapiens (Human))', 'Not satisfied'),
  ('CC(=O)/C=C/C(=O)N1CC2(CCN(c3ncnc4ccc(-c5cnc(Cl)c(NS(=O)(=O)c6c(F)cccc6F)c5)cc34)C2)C1', 'PI3Kα (Homo sapiens (Human))', 'Satisfied'),
  ('C=C(COC)C(=O)N1CCN(c2ncnc3ccc(-c4cnc(OC)c(NS(=O)(=O)c5ccc(F)cc5F)c4)cc23)CC1', 'PI3Kα (Homo sapiens (Human))', 'Not satisfied'),
  ('COc1ncc(-c2ccc3ncnc(N4CCN(C(=O)/C=C/C(C)=O)C[C@@H]4C)c3c2)cc1NS(=O)(=O)c1c(F)cccc1F', 'PI3Kα (Homo sapiens (Human))', 'Satisfied'),
  ('COc1ncc(-c2ccc3ncnc(N4CCN(C(=O)C5OC5C(C)=O)CC4)c3c2)cc1NS(=O)(=O)c1ccc(F)cc1F (stereo not shown)', 'PI3Kα (Homo sapiens (Human))', 'Satisfied'),
  ('COc1ncc(-c2ccc3ncnc(N4C[C@@H](C)N(C(=O)/C=C/C(C)=O)C[C@@H]4C)c3c2)cc1NS(=O)(=O)c1c(F)cccc1F', 'PI3Kα (Homo sapiens (Human))', 'Not satisfied'),
  ('COc1ncc(-c2ccc3ncnc(N4CCC5(CC=CC5=O)CC4)c3c2)cc1NS(=O)(=O)c1ccc(F)cc1F', 'PI3Kα (Homo sapiens (Human))', 'Not satisfied'),
  ('COc1ncc(-c2ccc3ncnc(N4CCN(C(=O)/C=C/C(F)(F)F)CC4)c3c2)cc1NS(=O)(=O)c1c(F)cccc1F', 'PI3Kα (Homo sapiens (Human))', 'Not satisfied');
